Collected IC50 values appear next to each entry.
Biological target: PD-1/PD-L1 protein/protein interaction (Homo sapiens, UniProt Q9NZQ7)
Construct: Recombinant human PD-L1 protein (19-238) with a His-tag at the C-terminus; purchased AcroBiosystems PD1-H5229 (PD-L1-His); PD1-H5257 (PD-1-Fc)
Sequence (Q9NZQ7 19-238): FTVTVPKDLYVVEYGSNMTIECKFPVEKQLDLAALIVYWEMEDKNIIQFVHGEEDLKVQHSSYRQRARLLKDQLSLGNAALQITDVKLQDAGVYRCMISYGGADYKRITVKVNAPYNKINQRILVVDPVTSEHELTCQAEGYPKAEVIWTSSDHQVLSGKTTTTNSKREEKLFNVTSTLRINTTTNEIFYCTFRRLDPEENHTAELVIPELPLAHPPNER
Assay: PD-1/PD-L1 Homogeneous Time-Resolved Fluorescence (HTRF) Binding Assay
Conditions: recombinant human PD-L1 (19-238) His-tag and human PD-1 (25-167) Fc tag; 25° C., PBS pH 7.4
Protocol: Example A. PD-1/PD-L1 Homogeneous Time-Resolved Fluorescence (HTRF) Binding Assay The assays were conducted in a standard black 384-well polystyrene plate with a final volume of 20 μL. Inhibitors were first serially diluted in DMSO and then added to the plate wells before the addition of other reaction components. […] After centrifugation, the plate was incubated at 25° C. for 60 min. before reading on a PHERAstar FS plate reader (665 nm/620 nm ratio). […]

Request the reported IC50 associated with CN1CCOc2cc(-c3cccc(NC(=O)c4ccc(CNCCO)cn4)c3C#N)ccc21 100 to 1000 nM

Entry Cc1c(NC(=O)c2ncccn2)cccc1-c1ccccc1 please 100 to 1000 nM

---

target: PD-1/PD-L1 protein/protein interaction (Homo sapiens, UniProt Q9NZQ7); construct: Recombinant human PD-L1 protein (19-238) with a His-tag at the C-terminus; PD1-H5257 (PD-1-Fc); assay: PD-1/PD-L1 Homogeneous Time-Resolved Fluorescence (HTRF) Binding Assay; conditions: recombinant human PD-L1 (19-238) His-tag and human PD-1 (25-167) Fc tag; 25° C., PBS pH 7.4
pIC50: −log10 of the molar value.
Collected pIC50 values appear next to each entry.

Examples from the recorded data:
smi=Cc1c(NC(=O)c2ccc(CN3CCCC[C@H]3C(=O)O)cn2)ccnc1-c1ccccc1 measure=pIC50 recorded_result="< 6.00"
smi=N#Cc1c(NC(=O)c2ccc(CNCCO)cn2)cccc1-c1ccccc1 measure=pIC50 recorded_result="≥ 8.00"
smi=CC(C)(C)OC(=O)N1CCC=C(c2cccc(NC(=O)c3ccc(CNCCO)cn3)c2C#N)C1 measure=pIC50 recorded_result="6.00 to 7.00"
smi=Cc1c(NC(=O)c2cc(OCc3cccc(C#N)c3)c(CNCCO)cn2)cccc1-c1ccccc1 measure=pIC50 recorded_result="7.00 to 8.00"
smi=N#Cc1c(NC(=O)c2ccc(CNCCO)cn2)cccc1-c1ccc2c(c1)OCC2 measure=pIC50 recorded_result="7.00 to 8.00"

Request the reported pIC50 associated with Cc1c(NC(=O)c2ncc(CN3CCCC[C@H]3C(=O)O)cn2)cccc1-c1ccccc1 6.00 to 7.00

Entry Cc1nc(C(=O)Nc2cccc(-c3ccccc3)c2C)ccc1CN1CCCC[C@H]1C(=O)O please 6.00 to 7.00

Entry Cc1c(NC(=O)c2cccnn2)cccc1-c1ccccc1 please 6.00 to 7.00

Entry Cc1c(NC(=O)c2cnc(CNCCO)cn2)cccc1-c1ccccc1 please 7.00 to 8.00

---

molecular target: PD-1/PD-L1 protein/protein interaction (Homo sapiens, UniProt Q9NZQ7); construct: Recombinant human PD-L1 protein (19-238) with a His-tag at the C-terminus; PD1-H5257 (PD-1-Fc); experiment: PD-1/PD-L1 Homogeneous Time-Resolved Fluorescence (HTRF) Binding Assay; conditions: recombinant human PD-L1 (19-238) His-tag and human PD-1 (25-167) Fc tag; 25° C., PBS pH 7.4
measure: IC50

compound="Cc1c(NC(=O)c2ccnc(OCc3cccnc3)n2)cccc1-c1ccccc1 [Example 30]" measure=IC50 recorded_result="100 to 1000 nM"
compound="N#Cc1c(NC(=O)c2ccc(CN3CCCC[C@H]3C(=O)O)cn2)cccc1-c1ccc2c(c1)OCCO2 [Example 9]" measure=IC50 recorded_result="10 to 100 nM"

# evaluate next
Request the reported IC50 associated with Cc1cnc(C(=O)Nc2cccc(-c3ccccc3)c2C)cc1CN1CCCC[C@H]1C(=O)O [Example 36] 10 to 100 nM

This collection of values is drawn from patent US12516044B2.
